- Assay procedure: Pharmacokinetics after intravenous bolus and oral gavage
- Assay type: in vivo, Swiss albino mice
- Condition context: mouse, in vivo; IV (5 mg/kg), Swiss albino mice, mean; read-out: Vss
Measured quantity: Vd

Q: # lookup: Vd of Fc1ccc(C2=C(CN3CCCC3)COc3ccc(OCC4CC4)cc32)cc1
A: 20.6 L/kg

---

- Assay procedure: Pharmacokinetics after intravenous bolus and oral gavage
- Type: in vivo, Swiss albino mice
- Condition context: mouse, in vivo; IV (5 mg/kg), Swiss albino mice, mean
Measured quantity: half-life (h)
Answers are plain numbers, in h.

Q: What value of half-life has been reported for the following molecule? Fc1ccc(C2=C(CN3CCCC3)COc3ccc(OCC4CC4)cc32)cc1
A: 8.45

These data points were gathered from patent US10131647B2.
